# Tested Target: Lethal Factor (LF) protease of anthrax toxin (Bacillus anthracis, UniProt P15917)
# Sequence (P15917 34-809 limits assumed): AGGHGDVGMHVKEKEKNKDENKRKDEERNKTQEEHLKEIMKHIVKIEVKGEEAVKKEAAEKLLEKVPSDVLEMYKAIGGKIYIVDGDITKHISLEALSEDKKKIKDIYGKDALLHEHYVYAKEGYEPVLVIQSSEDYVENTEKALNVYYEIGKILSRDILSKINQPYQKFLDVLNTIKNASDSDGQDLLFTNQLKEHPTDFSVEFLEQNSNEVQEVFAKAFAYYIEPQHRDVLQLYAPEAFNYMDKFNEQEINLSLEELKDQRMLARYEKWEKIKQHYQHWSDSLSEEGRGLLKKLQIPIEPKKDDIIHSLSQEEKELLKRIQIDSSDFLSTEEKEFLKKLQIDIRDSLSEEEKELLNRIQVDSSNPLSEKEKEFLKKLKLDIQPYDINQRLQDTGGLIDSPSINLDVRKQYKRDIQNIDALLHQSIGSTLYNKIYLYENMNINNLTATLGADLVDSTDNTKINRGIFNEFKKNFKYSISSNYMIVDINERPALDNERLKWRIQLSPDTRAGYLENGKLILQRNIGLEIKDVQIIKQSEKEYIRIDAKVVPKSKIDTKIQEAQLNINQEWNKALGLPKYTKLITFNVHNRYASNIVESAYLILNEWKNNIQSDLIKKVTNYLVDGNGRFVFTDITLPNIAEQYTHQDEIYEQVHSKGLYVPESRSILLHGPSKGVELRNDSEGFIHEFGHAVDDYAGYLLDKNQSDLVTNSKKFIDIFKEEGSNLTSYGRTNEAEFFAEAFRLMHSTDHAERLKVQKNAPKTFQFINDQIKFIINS
# Test Summary: biochemical
Assay Metric: pIC50 Obs
I only need the number, thanks.

Data request: For CN1C(=N)NC(=O)/C1=C\c1ccc(-c2cc(C(F)(F)F)ccc2Cl)o1 , write its pIC50 Obs.
Data returned: 4

Data request: Please report the measured pIC50 Obs for O=C(O)CN1C(=O)/C(=C/c2ccc(-c3ccc(Cl)cc3)s2)SC1=S
Data returned: 5.49

Data request: Read off the recorded pIC50 Obs for O=C(O)CN1C(=O)/C(=C/c2ncc(-c3ccc(F)cc3)s2)SC1=S
Data returned: 4.65

Data request: Name the recorded pIC50 Obs of the item O=C(O)CN1C(=O)/C(=C/c2ccc(-c3ccccc3)o2)SC1=S in your answer.
Data returned: 4.78

Data request: Respond only with pIC50 Obs recorded for COc1ccc(-c2cnc(/C=C3\SC(=S)N(CC(=O)O)C3=O)s2)cc1OC
Data returned: 5.30

Data request: Give the reported value of pIC50 Obs for this record: O=C(O)CN1C(=O)/C(=C/c2ccc(-c3ccc(Cl)cc3)o2)SC1=S
Data returned: 6.05

Data request: Give recorded pIC50 Obs. O=C(O)CN1C(=O)/C(=C/c2nccs2)SC1=S
Data returned: 4.14
